target: Epidermal growth factor receptor (Homo sapiens) (UniProt P00533); experiment: compounds binding epidermal growth factor receptor – biochemical, small-molecule microarray, 635 nm fluorescence, primary screen (AID 1104); conditions: EGFR binding, higher = more signal;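 further: score merges 667 nm emission intensity with spot signal to noise over triplicate slides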
Sequence (P00533 whole entry, looked up): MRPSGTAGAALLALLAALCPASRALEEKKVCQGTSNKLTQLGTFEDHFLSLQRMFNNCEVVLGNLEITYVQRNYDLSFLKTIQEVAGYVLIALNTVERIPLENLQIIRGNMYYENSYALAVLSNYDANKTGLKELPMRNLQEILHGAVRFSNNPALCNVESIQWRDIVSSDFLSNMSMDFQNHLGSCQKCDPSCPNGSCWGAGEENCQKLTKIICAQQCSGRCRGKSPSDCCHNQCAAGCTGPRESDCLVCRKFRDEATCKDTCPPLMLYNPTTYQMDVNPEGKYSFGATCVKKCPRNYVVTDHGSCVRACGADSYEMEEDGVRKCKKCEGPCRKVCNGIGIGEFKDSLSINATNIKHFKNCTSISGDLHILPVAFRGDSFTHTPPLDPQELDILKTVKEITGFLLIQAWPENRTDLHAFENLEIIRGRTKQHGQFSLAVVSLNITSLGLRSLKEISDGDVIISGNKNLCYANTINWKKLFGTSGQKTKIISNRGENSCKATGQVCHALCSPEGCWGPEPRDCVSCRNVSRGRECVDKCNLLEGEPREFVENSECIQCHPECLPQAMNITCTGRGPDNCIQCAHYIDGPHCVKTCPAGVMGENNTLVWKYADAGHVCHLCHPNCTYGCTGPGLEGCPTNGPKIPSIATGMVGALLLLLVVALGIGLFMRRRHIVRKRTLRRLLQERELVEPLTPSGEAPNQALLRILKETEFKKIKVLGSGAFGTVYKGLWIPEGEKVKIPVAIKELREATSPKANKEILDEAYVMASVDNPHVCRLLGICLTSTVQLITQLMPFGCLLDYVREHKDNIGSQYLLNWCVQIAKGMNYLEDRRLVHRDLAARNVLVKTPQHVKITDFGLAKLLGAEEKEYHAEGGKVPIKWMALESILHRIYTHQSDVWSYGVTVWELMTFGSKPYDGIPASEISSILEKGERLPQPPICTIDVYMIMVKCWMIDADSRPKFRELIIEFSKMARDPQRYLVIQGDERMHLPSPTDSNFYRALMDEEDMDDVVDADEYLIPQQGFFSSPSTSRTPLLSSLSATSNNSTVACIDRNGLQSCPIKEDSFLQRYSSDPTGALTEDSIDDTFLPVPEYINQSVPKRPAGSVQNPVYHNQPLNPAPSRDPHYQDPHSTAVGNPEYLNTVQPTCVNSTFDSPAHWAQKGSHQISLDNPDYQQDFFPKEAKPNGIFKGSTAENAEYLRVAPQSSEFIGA
METRIC_NAME: composite z-score
Give bare numbers.

>  <MOLECULE>
CO[C@H]1O[C@H](CO)[C@@H](OC(=O)Nc2ccc(Br)cc2)[C@@H]2OC(=O)[C@H](Cc3cccc(Br)c3)C/C=C/C[C@@H](Cc3cccc(Br)c3)C(=O)O[C@@H]12

>  <OBSERVED_RESULT>
-0.461

$$$$
>  <MOLECULE>
O=C1OCC=C[C@H]2OC34C=CCN(CCN5CCOCC5)C(=O)[C@H]3N(CCO)C(=O)[C@@H]4[C@@H]12 (some centres undefined)

>  <OBSERVED_RESULT>
-0.14

$$$$
>  <MOLECULE>
C#CCN(C/C=C/c1ccccc1)[C@H](CO)c1ccccc1

>  <OBSERVED_RESULT>
-0.0239

$$$$

What value of composite z-score has been recorded for this entry: CCOc1ccc(N2C(=O)CSC2c2cccc([N+](=O)[O-])c2)cc1 (centres undefined)
0.354

###

For each entry below, report its z-score value.
assay: change in splice reporter luminescence, either direction, cell-based, HEK293, spliceosome inhibition project, primary screen (AID 1101); settings: HEK293 splicing luciferase reporter, 24 h, higher = more signal, called active from +8 up or from −8 down;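 further: HEK293 cells carrying a splicing-competent luciferase reporter gene; test concentration not given here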
Answers are plain numbers.

Observe how each entry below is paired with its result.
>  <MOLECULAR_STRING>
NC(=O)[C@@]1(Cc2ccccc2)N=C(c2ccc(OCCCO)cc2)O[C@H]1c1ccccc1

>  <METRIC_NAME>
z-score

>  <OBSERVED_RESULT>
-1.26

$$$$
>  <MOLECULAR_STRING>
COc1ccc([Si](C)(C)[C@H]2[C@H](CC(=O)N3CCC[C@H]3CO)O[C@@]3(C(=O)N(Cc4cccc(N5CCOC5=O)c4)c4ccccc43)[C@@H]2C)cc1

>  <METRIC_NAME>
z-score

>  <OBSERVED_RESULT>
-0.298

$$$$
>  <MOLECULAR_STRING>
COC(=O)[C@]1(Cc2ccccc2)N=C(c2ccc(OCCCO)cc2)O[C@@H]1c1ccccc1N=[N+]=[N-]

>  <METRIC_NAME>
z-score

>  <OBSERVED_RESULT>
-1.56

$$$$

Below are some compounds; for each one, tell me its z-score.
1. O=C(CS)NCCCCCNC(=O)[C@@H]1C[C@@H]2C(=O)NCC(=O)N2[C@@H]1c1cccc(OCCO)c1
2. O=C1C[C@@](C(=O)NCc2ccccc2)(c2ccc([N+](=O)[O-])cc2)[C@@H](c2ccc(CO)cc2)N1CC12CC3CC(CC(C3)C1)C2

-1.82
-0.859

###

test system: PRMT1 (protein arginine N-methyltransferase 1); assay: small molecules binding arginine methyltransferase PRMT1 – biochemical, small-molecule microarray, 635 nm fluorescence, primary screen (AID 1088); conditions: higher = more signal;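 further: binding of Prmt1 protein to compounds spotted on small-molecule microarray slides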
METRIC_NAME: composite z-score
Give bare numbers.

>  <MOLECULE>
N#Cc1ccc(C(O)C2C=CC3C(=O)N(c4ccccc4)C(=O)C3N2Nc2ccccc2F)cc1 (stereo unspecified)

>  <composite z-score>
0.713

$$$$
>  <MOLECULE>
O=C(O)[C@H]1C[C@H]2C(=O)N3CCC[C@H]3C(=O)N2[C@H]1c1ccc(O)cc1

>  <composite z-score>
-0.57

$$$$
>  <MOLECULE>
COCC(=C=CC[C@@H](O)c1ccc(OCCO)cc1)C[C@@H](O)c1ccccn1

>  <composite z-score>
0.37

$$$$

Below are some molecules; for each one, tell me its composite z-score.
1. Cc1ccc(S(=O)(=O)N2C[C@@H](C(=O)O)[C@H](Sc3ccccc3)C[C@H]2c2ccccc2)cc1
2. COc1cc(OC)c(C(O)C2C=CC3C(=O)NC(=O)C3N2Nc2ccccn2)cc1Br (stereo unspecified)
3. COCCCNC(=O)[C@@]1(Sc2ccc(C)cc2)CC(=O)N(Cc2ccccc2Cl)[C@@H]1c1ccc(CO)cc1
4. C=CC1c2cc(O)c(OC)cc2CCN1Cc1cccc(OC(F)(F)F)c1 (stereo unspecified)
5. CC1CC/C=C\[C@H]2OC34C=CCN(Cc5ccccc5)C(=O)[C@H]3N(C(C)CO)C(=O)[C@@H]4C2C(=O)O1 (stereo partly specified)
6. COc1cc(CO)cc(I)c1O[C@H]1C=C(C(=O)NCCO)C[C@@H](N(C(=O)c2cc3ccccc3oc2=O)C2CCCCCC2)[C@@H]1O
7. CC(c1ccccc1)C(O)C1C=CC2C(=O)N(c3ccccc3)C(=O)C2N1Nc1ccccc1 (stereo unspecified)

1: 1.55; 2: 1.49; 3: 1.54; 4: 1.22; 5: -0.938; 6: -0.446; 7: 1.54

Below are some molecules; for each one, tell me its composite z-score.
1. CCC(CC)C(O)C1C=CC2C(=O)N(c3ccccc3)C(=O)C2N1Nc1ccccc1 (stereo unspecified)
2. COc1ccc([Si](C)(C)[C@H]2[C@H](CCO)O[C@@]3(C(=O)N(Cc4ccccc4)c4ccc(N5CCCCC5=O)cc43)[C@@H]2C)cc1
3. CCCC1(C(=O)OC)C=C2C(=C(c3ccccc3)C(=O)C2C)CN1 (stereo unspecified)

[1.49, 1.56, -0.406]

Below are some molecules; for each one, tell me its composite z-score.
1. C=CCN(Cc1ccccc1)C(=O)C(c1cccs1)N(C(=O)/C=C\C(=O)O)c1ccc(CCOCCO)cc1 (stereo unspecified)
2. CC(=O)NCCCC[C@@H]1NC(=O)[C@H]2C[C@@H](C(=O)NCCCCCNC(=O)CS)[C@@H](c3ccc(O)cc3)N2C1=O
3. COCCOC(=O)N1C(=O)[C@@]2(c3cc(C#CC4=CCCCC4)ccc31)[C@H](c1ccc(OCCO)cc1)N1[C@H](c3ccccc3)[C@H](c3ccccc3)OC(=O)[C@H]1[C@@H]2C(=O)N1CCc2cc(OC)c(OC)cc2C1

1: -0.133; 2: 0.524; 3: 1.55

Where these numbers come from: PubChem BioAssay
